assay system: cereblon (CRBN)—DNA damage protein 1 (DDB1) complex (Homo sapiens)
Construct: encoding amino acid residues 1 to 442 (Uniprot Q96SW2); hexahistidine (N); thrombin cleavage site (N)
Sequence (Q96SW2 with tags, fused parts or gaps): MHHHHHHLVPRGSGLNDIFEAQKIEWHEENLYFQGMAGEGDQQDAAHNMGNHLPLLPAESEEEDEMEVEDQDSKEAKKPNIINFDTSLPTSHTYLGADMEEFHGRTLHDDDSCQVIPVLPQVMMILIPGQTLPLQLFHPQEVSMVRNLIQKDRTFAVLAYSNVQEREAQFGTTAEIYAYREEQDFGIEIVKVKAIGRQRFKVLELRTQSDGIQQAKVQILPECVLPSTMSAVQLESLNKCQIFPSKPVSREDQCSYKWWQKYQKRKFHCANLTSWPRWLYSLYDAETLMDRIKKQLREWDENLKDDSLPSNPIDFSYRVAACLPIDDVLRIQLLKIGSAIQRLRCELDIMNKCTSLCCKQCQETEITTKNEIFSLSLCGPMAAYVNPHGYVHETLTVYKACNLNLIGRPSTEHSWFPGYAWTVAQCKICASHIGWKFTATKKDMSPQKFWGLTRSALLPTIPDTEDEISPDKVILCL
method notes: Cereblon HTRF binding assay
Measured IC50 by item
observable: IC50 (nM)

1) COCc1cc(N2CCC(=O)NC2=O)c2ccn(C)c2c1 | 430
2) CN1CCC(c2nc3ccc(N4CCC(=O)NC4=O)cc3o2)CC1 | 2420
3) O=C1CCN(c2cncc3[nH]ccc23)C(=O)N1 | 206
4) CN1CCC(n2cc3ccc(-n4ccc(=O)[nH]c4=O)cc3n2)CC1 | 2160
5) O=C1CCN(c2cccc3ncoc23)C(=O)N1 | 3880

###

assay system: cereblon (CRBN)—DNA damage protein 1 (DDB1) complex (Homo sapiens)
Construct: encoding amino acid residues 1 to 442 (Uniprot Q96SW2); hexahistidine (N); thrombin cleavage site (N)
method notes: Cereblon HTRF binding assay
Under this convention, True denotes IC50 strictly below 1 µM and False denotes IC50 at or above 1 µM.

1. CN1CCc2cc(N3CCC(=O)NC3=O)ccc2C1 | False
2. Cc1c(-n2ccc(=O)[nH]c2=O)cnc2cc[nH]c12 | False
3. O=C1CCN(c2ccc3cc4n(c3c2)CCNC4)C(=O)N1 | True
4. CN1CCC(n2ccc3ccc(N4CCC(=O)NC4=O)cc32)CC1 | False
5. O=C1CCN(c2ccc3c(c2)NCCC3)C(=O)N1 | False
6. CN1CCN(c2noc3cc(N4CCC(=O)NC4=O)ccc23)CC1 | False
7. CN1CCN(c2c[nH]c3ccc(N4CCC(=O)NC4=O)cc23)CC1 | False
8. O=C1CCN(c2ccc3ccn(C4CCNCC4)c3c2)C(=O)N1 | False
9. CN1CCCc2ccc(N3CCC(=O)NC3=O)cc21 | True
10. O=C1CCN(c2ccc3c(c2)CNCC3)C(=O)N1 | False
11. Cn1ncc2cc(N3CCC(=O)NC3=O)ccc21 | False
12. O=C1CCN(c2ccc3ccnn3c2)C(=O)N1 | False
13. CN1CCc2ccc(N3CCC(=O)NC3=O)cc21 | False
14. O=C1CCN(c2ccc3c(N4CCNCC4)noc3c2)C(=O)N1 | False
15. CC(=O)N1CCC(c2c[nH]c3cc(N4CCC(=O)NC4=O)ccc23)CC1 | True
16. O=C1CCN(c2ccc3cc(C4CCNCC4)[nH]c3c2)C(=O)N1 | True
17. O=C1CCN(c2cc(F)c3cc[nH]c3c2)C(=O)N1 | True
18. O=C1CCN(c2ccc3c(c2)cc2n3CCNC2)C(=O)N1 | True
19. O=C1CCN(c2ccc3c(C4CCNCC4)c[nH]c3c2)C(=O)N1 | True
20. O=C1CCN(c2ccc3c(c2)C(=O)NC3)C(=O)N1 | False
21. CN1CCc2ccc(N3CCC(=O)NC3=O)cc2C1 | False

###

Measured IC50 by item
assay system: cereblon (CRBN)—DNA damage protein 1 (DDB1) complex (Homo sapiens)
Construct: encoding amino acid residues 1 to 442 (Uniprot Q96SW2); hexahistidine (N); thrombin cleavage site (N)
method notes: Cereblon HTRF binding assay
From the text: The synthesized sequence was designed to encode an N-terminal hexahistidine tag, a thrombin cleavage site, an AviTag™ and a tobacco etch virus protease (TEV) cleavage site followed by the CBRN sequence. The resulting protein sequence is listed below. The synthesized sequence was designed to encode an N-terminal hexahistidine tag, a tobacco etch virus protease (TEV) cleavage site followed by the DDB1 sequence. […] The IC50 values reported below are the calculated mean result of one or more experiments.
observable: IC50 (nM)

1. CC(=O)N1CCN(c2c[nH]c3cc(N4CCC(=O)NC4=O)ccc23)CC1 | 963
2. O=C1NC(=O)N(c2ccc3cc[nH]c3c2)CC1F (centres unmarked) | 967
3. Cn1cc2cc(N3CCC(=O)NC3=O)ccc2n1 | 4570
4. Cn1cc(N2CCNCC2)c2cc(N3CCC(=O)NC3=O)ccc21 | 1920
5. O=C1CCN(c2ccc3c(c2)CCCN3)C(=O)N1 | 1490
6. O=C1CCN(c2cc(Cl)c3cc[nH]c3c2)C(=O)N1 | 244
7. O=C1CCN(c2cc(N3CCNCC3)cc3[nH]ccc23)C(=O)N1 | 762
8. CN1CCN(c2ccc(N3CCC(=O)NC3=O)c3ccn(C)c23)CC1 | 577
9. CN1CCC(c2cc3ccc(N4CCC(=O)NC4=O)cc3n2C)CC1 | 195
10. O=C1CCN(c2cccc3nc(N4CCNCC4)sc23)C(=O)N1 | 161
11. CNC(=O)Cc1c[nH]c2cc(N3CCC(=O)NC3=O)ccc12 | 264
12. CN1CCC(c2cn(C)c3cc(N4CCC(=O)NC4=O)ccc23)CC1 | 1450
13. CN1CCC(c2cc3ccc(N4CCC(=O)NC4=O)cc3[nH]2)CC1 | 168
14. COc1cc2cc[nH]c2cc1N1CCC(=O)NC1=O | 1510
15. O=C1CCN(c2ccc3[nH]c(=O)oc3c2)C(=O)N1 | 3750
16. O=C1CCN(c2ccc3sccc3c2)C(=O)N1 | 706
17. O=C1CCN(c2c(F)ccc3[nH]ccc23)C(=O)N1 | 235
18. O=C1CCN(c2ccc3c(N4CCNCC4)c[nH]c3c2)C(=O)N1 | 1130
19. O=C1CCN(c2ccc3ccoc3c2)C(=O)N1 | 2100
20. Cc1cc(N2CCC(=O)NC2=O)cc2[nH]ccc12 | 511
